Target: Peptidyl-prolyl cis-trans isomerase NIMA-interacting 1 (Homo sapiens)
Experiment: Inhibition of recombinant N-terminal His6-tagged human Pin1 using Suc-Ala-Glu-cis-Pro-Phe-4-nitroanilide as substrate preincubated for 30 mins followed by substrate addition measured for 90 secs
pIC50: −log10 of the molar value.
Entry flag: True if pIC50 reaches 6; False if it does not.

Please indicate if the recorded pIC50 for "C[C@H]1[C@H](C)CC[C@]2(C)CC[C@]3(C)C(=CC(=O)[C@@H]4[C@@]5(C)CC[C@@H](OC(=O)CN6CCN(c7cccc(C(F)(F)F)c7)CC6)[C@](C)(C(=O)O)[C@@H]5CC[C@]43C)[C@H]12" meets or exceeds 6.
False

Further cases:
Please indicate if the recorded pIC50 for "C[C@H]1[C@H](C)CC[C@]2(C)CC[C@]3(C)C(=CC(=O)[C@@H]4[C@@]5(C)C/C(=C\C(=O)O)C(=O)[C@](C)(C(=O)OCc6ccccc6)[C@@H]5CC[C@]43C)[C@H]12" meets or exceeds 6.
True

Please indicate if the recorded pIC50 for CC(=O)O[C@@H]1CC[C@@]2(C)[C@@H](CC[C@]3(C)[C@@H]2C(=O)C=C2[C@@H]4[C@@H](C)[C@H](C)CC[C@]4(C)CC[C@]23C)[C@@]1(C)C(=O)O [AKBA] meets or exceeds 6.
False

Please indicate if the recorded pIC50 for "C[C@H]1[C@H](C)CC[C@]2(C)CC[C@]3(C)C(=CC(=O)[C@@H]4[C@@]5(C)C/C(=C\C(=O)O)C(=O)[C@](C)(C(=O)N6CCCCC6)[C@@H]5CC[C@]43C)[C@H]12" meets or exceeds 6.
True

###

Target: Peptidyl-prolyl cis-trans isomerase NIMA-interacting 1 (Homo sapiens)
Experiment: Inhibition of recombinant N-terminal His6-tagged human Pin1 at 10 uM using Suc-Ala-Glu-cis-Pro-Phe-4-nitroanilide as substrate preincubated for 30 mins followed by substrate addition measured for 90 secs
Each item that follows carries a reported inhibition.
Output spec: scalar in %, unitless text.

// below: answered molecules
Sample "CC(=O)O[C@@H]1CC[C@@]2(C)[C@@H](CC[C@]3(C)[C@@H]2C(=O)C=C2[C@@H]4[C@@H](C)[C@H](C)CC[C@]4(C)CC[C@]23C)[C@@]1(C)C(=O)O" — what was its inhibition?
26

Sample "C[C@H]1[C@H](C)CC[C@]2(C)CC[C@]3(C)C(=CC(=O)[C@@H]4[C@@]5(C)C/C(=C\c6ccc(C(=O)O)cc6)C(=O)[C@](C)(C(=O)OCc6ccccc6)[C@@H]5CC[C@]43C)[C@H]12" — what was its inhibition?
40

Sample "C[C@H]1[C@H](C)CC[C@]2(C)CC[C@]3(C)C(=CC(=O)[C@@H]4[C@@]5(C)Cc6c(C(=O)O)n[nH]c6[C@](C)(C(=O)OCc6ccccc6)[C@@H]5CC[C@]43C)[C@H]12" — what was its inhibition?
31

Sample "COC(=O)[C@@]1(C)C(=O)/C(=C/c2ccc(C(=O)O)cc2)C[C@]2(C)[C@H]3C(=O)C=C4[C@@H]5[C@@H](C)[C@H](C)CC[C@]5(C)CC[C@@]4(C)[C@]3(C)CC[C@@H]12" — what was its inhibition?
43

Let us examine a further case.
Sample "C[C@H]1[C@H](C)CC[C@]2(C)CC[C@]3(C)C(=CC(=O)[C@@H]4[C@@]5(C)CC[C@@H](OC(=O)CN6CCOCC6)[C@](C)(C(=O)O)[C@@H]5CC[C@]43C)[C@H]12" — what was its inhibition?
78

###

Each item that follows carries a reported inhibition.
Target: Peptidyl-prolyl cis-trans isomerase NIMA-interacting 1 (Homo sapiens, UniProt Q13526)
Sequence (Q13526 whole entry): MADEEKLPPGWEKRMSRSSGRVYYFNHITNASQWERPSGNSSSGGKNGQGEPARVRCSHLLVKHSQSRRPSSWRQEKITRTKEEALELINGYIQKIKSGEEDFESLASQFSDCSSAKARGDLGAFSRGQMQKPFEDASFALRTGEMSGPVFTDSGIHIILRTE
Experiment: Inhibition of recombinant N-terminal His6-tagged human Pin1 at 10 uM using Suc-Ala-Glu-cis-Pro-Phe-4-nitroanilide as substrate preincubated for 30 mins followed by substrate addition measured for 90 secs
Output spec: scalar in %, unitless text.

// below: answered compounds
Sample "C[C@H]1[C@H](C)CC[C@]2(C)CC[C@]3(C)C(=CC(=O)[C@@H]4[C@@]5(C)CC[C@@H](OC(=O)COc6ccccc6)[C@](C)(C(=O)O)[C@@H]5CC[C@]43C)[C@H]12" — what was its inhibition?
35

Sample "C[C@H]1[C@H](C)CC[C@]2(C)CC[C@]3(C)C(=CC(=O)[C@@H]4[C@@]5(C)C/C(=C\c6ccccc6)C(=O)[C@](C)(C(=O)OCc6ccccc6)[C@@H]5CC[C@]43C)[C@H]12" — what was its inhibition?
37

Sample "C[C@H]1[C@H](C)CC[C@]2(C)CC[C@]3(C)C(=CC(=O)[C@@H]4[C@@]5(C)CC[C@@H](OC(=O)CN6CCN(c7cccc(C(F)(F)F)c7)CC6)[C@](C)(C(=O)O)[C@@H]5CC[C@]43C)[C@H]12" — what was its inhibition?
80

Let us examine a further case.
Sample "COC(=O)[C@@]1(C)c2[nH]nc(C(=O)O)c2C[C@@]2(C)[C@H]1CC[C@]1(C)[C@@H]2C(=O)C=C2[C@@H]3[C@@H](C)[C@H](C)CC[C@]3(C)CC[C@]21C" — what was its inhibition?
56
